Where do the numbers come from? From patent US12570612B2.

system: SD rats; settings: after 1 hour continuous infusion at 2 times the MIR, SD rats
Below, each entry is listed alongside its reported Recovery time after stopping infusion.
Test readout: Recovery time after stopping infusion

Compound	Readout value
CC#CCOCC(=O)c1cncn1[C@H](C)c1ccccc1 [Compound C27]	15 to 20 min
C[C@H](c1ccccc1)n1cnc(F)c1C(=O)COCCC1CCC1 [Compound C74]	18 to 24 min
C#CCOCC(=O)c1cc(F)nn1[C@H](C)c1ccccc1 [Compound C15]	30 to 36 min
C[C@H](c1ccccc1)n1cncc1C(=O)COCCC1CCC1 [Compound C40]	27 to 35 min

====

Below, each entry is listed alongside its reported Minimal lethal dose.
Tested on: Sprague-Dawley rats
Test: animal or person
Conditions: rats
Experimental: Adult male Sprague-Dawley rats (250-300 g) were selected for the experiment. […] The anesthesia effects of the compounds were assessed in rats using a LORR assay and a period >30 s was considered as an indicator of general anesthesia.
Test readout: Minimal lethal dose

Compound	Target under test	Readout value
C=C=CC1(OC(=O)c2c(Cl)cnn2[C@H](C)c2ccccc2)COC1	Sprague-Dawley rats	>15 mg/kg
CCC(CC)OC(=O)c1ccnn1[C@H](C)c1ccccc1	Sprague-Dawley rats	>6 mg/kg
COC1CC(OC(=O)c2c(F)cnn2C(C)c2ccccc2)C1 (stereo not shown)	Sprague-Dawley rats	>2 mg/kg
C[C@H](c1ccccc1)n1nccc1C(=O)OC1(C)COC1	Sprague-Dawley rats	>7 mg/kg
CC#CC(C)(C)OC(=O)c1ccnn1[C@H](C)c1ccccc1	Sprague-Dawley rats	>6 mg/kg
C=C=CC1(OC(=O)c2c(C(F)(F)F)cnn2[C@H](C)c2ccccc2)COC1	Sprague-Dawley rats	>14 mg/kg
CC(=O)C1=C(OC(=O)c2c(F)cnn2[C@H](C)c2ccccc2)CCC1	Sprague-Dawley rats	>10 mg/kg
C=CC1(OC(=O)c2cc(F)nn2[C@H](C)c2ccccc2)COC1	Sprague-Dawley rats	>16 mg/kg
COC(=O)C1=C(OC(=O)c2ccnn2[C@H](C)c2ccccc2)CCC1	Sprague-Dawley rats	>12 mg/kg
C=CC1(OC(=O)c2ccnn2[C@H](C)c2ccccc2)COC1	Sprague-Dawley rats	>4 mg/kg
CCOC(=O)c1cncn1C(C)c1ccccc1 (stereo not shown) [Etomidate, reference compound]	Sprague-Dawley rats	12.75 mg/kg
CC#CC(C)OC(=O)c1ccnn1[C@H](C)c1ccccc1 (stereo partly shown)	Sprague-Dawley rats	>8 mg/kg
C=CC#CC(C)OC(=O)c1ccnn1[C@H](C)c1ccccc1 (stereo partly shown)	Sprague-Dawley rats	>9 mg/kg
